# system.tested: CK2A1 (CK2α/β) (Homo sapiens)
# method.description: CK2 kinase assay, CK2A1 (CK2α/β)
# Type: biochemical
# test.settings: Table A; read-out: CK2A1 (CK2α/β) (IC50)
pIC50: −log10 of the molar value.
Output Condition met for pIC50 not less than 9; output Condition not met otherwise.

Input: For this compound, is measured pIC50 9 or higher? COC(=O)N1CCC(c2cc(C#N)cc(Nc3nc(NC4CC4)c4ncc(C#N)n4n3)c2Cl)CC1
Output: Condition met

Input: For this compound, is measured pIC50 9 or higher? N#Cc1cnc2c(NC3CC3)nc(Nc3cc(C(N)=O)cc(N4CC(NC5COC5)C4)c3Cl)nn12
Output: Condition met

Input: For this compound, is measured pIC50 9 or higher? CN(C)C(=O)C1CN(c2cc(C#N)cc(Nc3nc(NC4CC4)c4ncc(C#N)n4n3)c2Cl)CCN1CC(F)F (stereo not drawn)
Output: Condition not met

Input: For this compound, is measured pIC50 9 or higher? CC1(C(=O)N2CC(N3CCN(c4cc(C#N)cc(Nc5nc(NC6CC6)c6ncc(C#N)n6n5)c4Cl)CC3)C2)COC1 [Example 515]
Output: Condition not met

Input: For this compound, is measured pIC50 9 or higher? COC(=O)NC1CCN(c2cc(C#N)cc(Nc3nc(NC4CC4)c4ncc(C#N)n4n3)c2Cl)C[C@@H]1N(C)CC#N (stereo in doubt)
Output: Condition not met

Input: For this compound, is measured pIC50 9 or higher? N#Cc1cc(CNCc2ccccn2)c(Cl)c(Nc2nc(NC3CC3)c3ncc(C#N)n3n2)c1
Output: Condition met

---

# system.tested: CK2A1 (CK2α/β) (Homo sapiens)
# method.description: CK2 kinase assay, CK2A1 (CK2α/β)
# Format: biochemical
# test.settings: Table A; read-out: CK2A1 (CK2α/β) (IC50)
Kindly apply the following: MET if IC50 is less than 1 nM, NOT MET in every other case.

Input: Is IC50 of N#Cc1cc(Nc2nc(NC3CC3)c3ncc(C#N)n3n2)c(Cl)c(N2CCN(C3CN(C(=O)C4CCC(O)CC4)C3)CC2)c1 (stereo not shown) [Example 509] strictly below 1 nM?
Output: NOT MET

Input: Is IC50 of N#Cc1cc(Nc2nc(NC3CC3)c3ncc(C#N)n3n2)c(Cl)c(C2CCN(CC(O)CF)CC2)c1 (racemic) strictly below 1 nM?
Output: MET

Input: Is IC50 of CNC(=O)CN1CCN(c2cc(C#N)cc(Nc3nc(NC4CC4)c4ncc(C#N)n4n3)c2Cl)C(=O)C1 strictly below 1 nM?
Output: NOT MET

Input: Is IC50 of N#Cc1cc(Nc2nc(NC3CC3)c3ncc(C#N)n3n2)c(Cl)c(N2CCN(C3CN(C(=O)C4CC4)C3)CC2)c1 strictly below 1 nM?
Output: MET

Input: Is IC50 of CN1CC(N(C)C2CCN(c3cc(C#N)cc(Nc4nc(NC5CC5)c5ncc(C#N)n5n4)c3Cl)CC2)CC1=O (stereo not shown) strictly below 1 nM?
Output: NOT MET

Input: Is IC50 of N#Cc1cc(Nc2nc(NC3CC3)c3ncc(C#N)n3n2)c(Cl)c(N2CCCOC2=O)c1 strictly below 1 nM?
Output: MET

Input: Is IC50 of CC1(O)CN(C2CCN(c3cc(C(F)F)cc(Nc4nc(NC5CC5)c5ncc(C#N)n5n4)c3Cl)CC2)C1 strictly below 1 nM?
Output: MET

---

# system.tested: CK2A1 (CK2α/β) (Homo sapiens)
# method.description: CK2 kinase assay, CK2A1 (CK2α/β)
# Assay type: biochemical
# test.settings: Table A; read-out: CK2A1 (CK2α/β) (IC50)
pIC50: −log10 of the molar value. Counter-ions that a name gives are not always drawn.
Output True for pIC50 not less than 9; output False otherwise.

Input: For this molecule, is measured pIC50 9 or higher? N#Cc1cc(Nc2nc(NC3CC3)c3ncc(C#N)n3n2)c(Cl)c(N2CC[C@@H](NC(=O)OC3CN(C4COC4)C3)[C@H](O)C2)c1 (racemic)
Output: True

Input: For this molecule, is measured pIC50 9 or higher? C[C@@H](O)Cn1nc(C#N)c2cc(Nc3nc(NC4CC4)c4ncc(C#N)n4n3)ccc21 [Example 393, HCl]
Output: True

Input: For this molecule, is measured pIC50 9 or higher? COC(=O)N[C@H]1CCN(C2CN(c3cc(C#N)cc(Nc4nc(NC5CC5)c5ncc(C#N)n5n4)c3Cl)C2)C[C@@H]1O (racemic)
Output: True

Input: For this molecule, is measured pIC50 9 or higher? CC(C)(O)C1CN(c2cc(C(F)F)cc(Nc3nc(NC4CC4)c4ncc(C#N)n4n3)c2Cl)CCO1 (racemic)
Output: False

Input: For this molecule, is measured pIC50 9 or higher? CCNc1nc(-n2cc([C@H]3C[C@@H]3CN(C)C)c3ccc(C#N)cc32)nn2c(C#N)cnc12 (single isomer, unassigned)
Output: False

Input: For this molecule, is measured pIC50 9 or higher? CCC(C)(O)CC(=O)N1CC(N2CCN(c3cc(C#N)cc(Nc4nc(NC5CC5)c5ncc(C#N)n5n4)c3Cl)CC2)C1 (stereo not shown)
Output: False

---

# system.tested: CK2A1 (CK2α/β) (Homo sapiens, UniProt P68400)
# Sequence (P68400 whole entry, species assumed): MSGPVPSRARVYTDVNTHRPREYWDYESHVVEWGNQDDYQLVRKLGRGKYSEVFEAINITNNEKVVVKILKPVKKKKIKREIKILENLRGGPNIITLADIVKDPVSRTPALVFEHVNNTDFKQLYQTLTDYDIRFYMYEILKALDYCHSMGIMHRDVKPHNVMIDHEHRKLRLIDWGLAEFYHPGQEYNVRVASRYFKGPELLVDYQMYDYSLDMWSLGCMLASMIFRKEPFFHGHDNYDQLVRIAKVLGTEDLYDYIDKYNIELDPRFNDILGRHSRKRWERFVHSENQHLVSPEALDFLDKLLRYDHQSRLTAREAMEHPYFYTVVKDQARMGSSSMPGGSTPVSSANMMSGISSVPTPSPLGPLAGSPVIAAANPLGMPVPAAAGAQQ
# Sequence (P67870 whole entry partner, species assumed): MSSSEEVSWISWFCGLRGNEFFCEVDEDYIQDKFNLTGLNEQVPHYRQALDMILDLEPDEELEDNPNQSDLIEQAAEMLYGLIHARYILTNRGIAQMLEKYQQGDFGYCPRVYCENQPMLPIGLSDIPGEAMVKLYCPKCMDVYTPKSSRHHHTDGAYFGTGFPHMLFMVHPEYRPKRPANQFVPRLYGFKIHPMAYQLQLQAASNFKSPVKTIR
# method.description: CK2 kinase assay, CK2A1 (CK2α/β)
# Type: biochemical
# test.settings: Table A; read-out: CK2A1 (CK2α/β) (IC50)
experimental.endpoint: IC50 (nM)
Dear colleague, please return just the value in nM, with no unit written.

Input: Would you mind telling me what IC50 value was observed for N#Cc1cc(Nc2nc(NC3CC3)c3ncc(C#N)n3n2)c(Cl)c(N2CCN([C@@H]3CS(=O)(=O)C[C@H]3O)CC2)c1 (racemic) [Example 535] ?
Output: 0.91

Input: Would you mind telling me what IC50 value was observed for N#Cc1cc(Nc2nc(NC3CC3)c3ncc(C#N)n3n2)c(Cl)c(N2CCN(C(=O)CCn3ccnc3)CC2)c1 [Example 98] ?
Output: 0.36

Input: Would you mind telling me what IC50 value was observed for N#Cc1cc(Nc2nc(NC3CC3)c3ncc(C#N)n3n2)c(Cl)c(N2CCC3(CC2)CN(Cc2ccc[nH]c2=O)C3)c1 [Example 805] ?
Output: 5.35

Input: Would you mind telling me what IC50 value was observed for CCNc1nc(Nc2cc(NC(=O)OC)cc(N3CCN(C)CC3)c2F)nn2c(C#N)cnc12 [Example 386] ?
Output: 5.79

---

I'd be grateful if you could share measured IC50 for these entries.
# system.tested: CK2A1 (CK2α/β) (Homo sapiens, UniProt P68400)
# method.description: CK2 kinase assay, CK2A1 (CK2α/β)
# Format: biochemical
# test.settings: Table A; read-out: CK2A1 (CK2α/β) (IC50)
Dear colleague, please return just the value in nM, with no unit written.

Input: Would you mind telling me what IC50 value was observed for CC(CCN1CC(O)C1)c1cc(C#N)cc(Nc2nc(NC3CC3)c3ncc(C#N)n3n2)c1Cl (stereo not shown) ?
Output: 0.98

Input: Would you mind telling me what IC50 value was observed for N#Cc1cc(Nc2nc(NC3CC3)c3ncc(C#N)n3n2)c(Cl)c(N2CCN(CCC(F)F)CC2)c1 ?
Output: 1.44

Input: Would you mind telling me what IC50 value was observed for COCCN(C)CC1CN(c2cc(C#N)cc(Nc3nc(NC4CC4)c4ncc(C#N)n4n3)c2Cl)CCN1C (stereo not shown) ?
Output: 1.35

Input: Would you mind telling me what IC50 value was observed for N#Cc1cc(Nc2nc(NC3CC3)c3ncc(C#N)n3n2)c(Cl)c(N2CCN(C3CN(C(=O)C4CCOC4)C3)CC2)c1 (stereo not shown) ?
Output: 4.77

Input: Would you mind telling me what IC50 value was observed for N#Cc1cc(Nc2nc(NC3CC3)c3ncc(C#N)n3n2)c(Cl)c(C2CCN(C3CCC3O)CC2)c1 (single isomer, unassigned) [Example 646] ?
Output: 1.48

Input: Would you mind telling me what IC50 value was observed for CN1CCC2CCN(c3cc(C#N)cc(Nc4nc(NC5CC5)c5ncc(C#N)n5n4)c3Cl)CC21 (racemic) ?
Output: 2.9

Input: Would you mind telling me what IC50 value was observed for CC(C)(O)C1CN(C2CN(c3cc(C#N)cc(Nc4nc(NC5CC5)c5ncc(C#N)n5n4)c3Cl)C2)CCO1 (racemic) ?
Output: 0.54

Input: Would you mind telling me what IC50 value was observed for CCNc1nc(Nc2ccc3c(c2)c(C#N)cn3C2CCN(CC(O)CF)CC2)nn2c(C#N)cnc12 (racemic) ?
Output: 0.8

Input: Would you mind telling me what IC50 value was observed for N#Cc1cc(Nc2nc(NC3CC3)c3ncc(C#N)n3n2)c(Cl)c(C2CCNCC2)c1 ?
Output: 0.57

Input: Would you mind telling me what IC50 value was observed for CN1CCC(N2CCN(c3cc(C#N)cc(Nc4nc(NC5CC5)c5ncc(C#N)n5n4)c3Cl)CC2)CC1 ?
Output: 1.98

Input: Would you mind telling me what IC50 value was observed for CCNc1nc(Nc2cc(C#N)cc(N3CC[C@@H](NC(=O)OC)[C@H](N(C)CC(C)(C)O)C3)c2Cl)nn2c(C#N)cnc12 ?
Output: 9

Input: Would you mind telling me what IC50 value was observed for CC1(N2CCN(c3cc(OC(F)F)cc(Nc4nc(NC5CC5)c5ncc(C#N)n5n4)c3Cl)CC2)COC1 ?
Output: 2.08

Input: Would you mind telling me what IC50 value was observed for N#Cc1cc(Nc2nc(NC3CC3)c3ncc(C#N)n3n2)c(Cl)c(N2CCN3C(CCS3(=O)=O)C2)c1 (racemic) ?
Output: 0.62

Input: Would you mind telling me what IC50 value was observed for N#Cc1cc(Nc2nc(NC3CC3)c3ncc(C#N)n3n2)c(Cl)c(C2CCN(C3CC[C@@H](N)[C@H](O)C3)CC2)c1 (stereo partly shown) ?
Output: 0.6

Input: Would you mind telling me what IC50 value was observed for CNCCOC(=O)N1CCN(c2cc(C#N)cc(Nc3nc(NC4CC4)c4ncc(C#N)n4n3)c2Cl)CC1 ?
Output: 0.76

Input: Would you mind telling me what IC50 value was observed for CCNc1nc(Nc2cc(C#N)cc(N3CCN(CC(C)(CO)CO)CC3)c2Cl)nn2c(C#N)cnc12 ?
Output: 0.99

Input: Would you mind telling me what IC50 value was observed for N#Cc1cc(Nc2nc(NC3CC3)c3ncc(C#N)n3n2)c(Cl)c(N2CCN(CCO)CC2)c1 ?
Output: 1.83

Input: Would you mind telling me what IC50 value was observed for CN1C(C)(C)CC(NC2CCN(c3cc(C#N)cc(Nc4nc(NC5CC5)c5ncc(C#N)n5n4)c3Cl)CC2)CC1(C)C ?
Output: 1.01

Input: Would you mind telling me what IC50 value was observed for N#Cc1cc(CN2CCNC(C(F)(F)F)C2)c(Cl)c(Nc2nc(NC3CC3)c3ncc(C#N)n3n2)c1 (racemic) ?
Output: 1.48

Input: Would you mind telling me what IC50 value was observed for CN(CC1CN(c2cc(C#N)cc(Nc3nc(NC4CC4)c4ncc(C#N)n4n3)c2Cl)CCO1)CC(C)(C)O (stereo not shown) ?
Output: 2.68

Input: Would you mind telling me what IC50 value was observed for COCC(=O)N1CCC(c2cc(C#N)cc(Nc3nc(NC4CC4)c4ncc(C#N)n4n3)c2Cl)CC1 ?
Output: 0.59

Input: Would you mind telling me what IC50 value was observed for CCNc1nc(Nc2cc(C#N)cc(N3CCN(C4CCOC4)CC3)c2Cl)nn2c(C#N)cnc12 (racemic) ?
Output: 0.83

Input: Would you mind telling me what IC50 value was observed for CC(C)(O)C(=O)N1CC(N2CCN(c3cc(C#N)cc(Nc4nc(NC5CC5)c5ncc(C#N)n5n4)c3Cl)CC2)C1 ?
Output: 0.81

Input: Would you mind telling me what IC50 value was observed for COCCN1CCC(c2cc(C#N)cc(Nc3nc(NC4CC4)c4ncc(C#N)n4n3)c2Cl)CC1 ?
Output: 0.9

Input: Would you mind telling me what IC50 value was observed for N#Cc1cc(Nc2nc(NC3CC3)c3ncc(C#N)n3n2)c(Cl)c(N2CCN(C3CN(C(=O)CC4CCOCC4)C3)CC2)c1 ?
Output: 0.87

Input: Would you mind telling me what IC50 value was observed for N#Cc1cc(Nc2nc(NC3CC3)c3ncc(C#N)n3n2)c(F)cc1F ?
Output: 0.99

Input: Would you mind telling me what IC50 value was observed for COC(=O)N[C@H]1C[C@@H](O)CN(c2cc(C#N)cc(Nc3nc(NC4CC4)c4ncc(C#N)n4n3)c2Cl)C1 ?
Output: 1.21

Input: Would you mind telling me what IC50 value was observed for N#Cc1cc(Nc2nc(NC3CC3)c3ncc(C#N)n3n2)c(F)c(N2CCN(C3CCOC3)CC2)c1 (stereo not shown) ?
Output: 5.03
